- protocol-notes: Water solubility of UV protection dyes (Table 1)
- condition-description: water
recorded-endpoint: solubility (mg/mL)

a = CN(C)c1ccc(/N=N/c2ccccc2C(=O)O)cc1
b = Nc1c(/N=N/c2ccc(-c3ccc(/N=N/c4cc(S(=O)(=O)O)c5ccccc5c4N)cc3)cc2)cc(S(=O)(=O)O)c2ccccc12
Dear colleague, could you let me know whether a or b has the lower recorded solubility? Thanks. When you have decided, please share the label of that item. a
(a: 2 mg/mL, b: 40 mg/mL)

I = Cc1c(C2(c3cc(Br)c(O)c(Br)c3C)OS(=O)(=O)c3ccccc32)cc(Br)c(O)c1Br
II = Cc1cc(N=Nc2ccc(C)c(N=Nc3cc(C)c(N)cc3N)c2)c(N)cc1N
For this pair, I and II , which shows a numerically higher solubility? Answer format: the label of the selected item. II
(II: 70 mg/mL, I: 6 mg/mL)

====

- protocol-notes: Water solubility of UV protection dyes (Table 1)
recorded-endpoint: WATER SOLUBILITY (mg/mL)

// returns reported WATER SOLUBILITY for input Cc1nn(-c2ccccc2)c([O-])c1N=Nc1cc([N+](=O)[O-])cc(S(=O)(=O)[O-])c1[O-].[Cr+3].[Na+].[OH-] [Acid Orange 74] 20

Then what about the compound CCN(CC)c1ccc(N=Nc2ccccc2C(=O)O)cc1 [Ethyl Red] ? 3

Would you mind doing CC1=NN(c2ccc(S(=O)(=O)[O-])cc2)C(=O)C1N=Nc1ccc(-c2ccc(N=Nc3ccc(OS(=O)(=O)c4ccc(C)cc4)cc3)c(S(=O)(=O)[O-])c2)cc1.[Na+].[Na+] (stereo not drawn) [Acid Orange 63] as well? 50

Subsequent entry: O=S(=O)([O-])c1ccc2c(N=Nc3ccccc3)c(O)ccc2c1.[Na+] [Crocein Orange G] 40

# iterate: CCN(CC)c1ccc(N=Nc2ccc(S(=O)(=O)[O-])cc2)cc1.[K+] [Ethyl Orange] 100

How about O=S1(=O)OC(c2ccc(O)c(Cl)c2)(c2ccc(O)c(Cl)c2)c2ccccc21 [Chlorophenol Red] ? 60

Item: Nc1cc(N)c(N=Nc2cc([N+](=O)[O-])cc([N+](=O)[O-])c2O)cc1Cl [Mordant Brown 48] 40

Then this compound: Nc1cc(N)c(N=Nc2cccc3c(S(=O)(=O)O)cccc23)cc1N=Nc1cc([N+](=O)[O-])ccc1O.[Na] [Mordant Brown 1] 60

I = CC(=O)Nc1ccc2nc3c4ccccc4c(=N)cc-3oc2c1.Cl [Darrow Red]
II = Nc1cc(N)c(S(=O)(=O)[O-])cc1N=Nc1cc([N+](=O)[O-])ccc1O.[Na+] [Mordant Brown 33]
Response body: label of entry with the larger WATER SOLUBILITY; valid values I , II . Give the label of your selection. II
